- procedure_text: Solubility comparison of ZYS-1 and PAC-1 needle crystal (HPLC)
- Format: physicochemical
- condition_parameters: acetone, organic solvent or mixture, thermodynamic from solid, room temperature
assay_readout: solubility at 24 h (mg/mL)
Return type: number; implicit unit mg/mL.

Problem: // solubility at 24 h lookup, key: C=CCc1cccc(/C=N/NC(=O)CN2CCN(Cc3ccccc3)CC2)c1O [PAC-1 needle crystal, reference compound]
Solution: 81.8

---

- procedure_text: In vivo pharmacokinetic comparison in rats
- condition_parameters: male, Wistar, rat, plasma, 60 mg/kg, n = 6, read-out: Cmax
assay_readout: Cmax
Include the unit after the number when you answer.

Problem: Please give the measured Cmax for this compound: `C=CCc1cccc(/C=N/NC(=O)CN2CCN(Cc3ccccc3)CC2)c1O`
Solution: 2190 ng/mL

---

- procedure_text: in vivo
- condition_parameters: both sexes, ICR, mouse, in vivo, po, LD50 95% confidence limit
assay_readout: LD50 at 7 days

Problem: Entry C=CCc1cccc(/C=N/NC(=O)CN2CCN(Cc3ccccc3)CC2)c1O [PAC-1 needle crystal, reference compound] : reported LD50 at 7 days = ?
Solution: 451 to 675 mg/kg

---

- procedure_text: Solubility comparison of ZYS-1 and PAC-1 needle crystal (HPLC)
- Type: physicochemical
- condition_parameters: absolute ethanol, organic solvent or mixture, thermodynamic from solid, room temperature
assay_readout: solubility at 24 h (mg/mL)
Reply with just the number (in mg/mL).

Problem: Sample C=CCc1cccc(/C=N/NC(=O)CN2CCN(Cc3ccccc3)CC2)c1O [PAC-1 needle crystal, reference compound] — what was its solubility at 24 h?
Solution: 18.9

---

- procedure_text: In vivo pharmacokinetic comparison in rats
- condition_parameters: male, Wistar, rat, plasma, 60 mg/kg, n = 6, read-out: AUC(0-tn)
assay_readout: AUC (µg·h/mL)
// note: answer is a bare numeric in µg·h/mL

Problem: Please look up its AUC: `C=CCc1cccc(/C=N/NC(=O)CN2CCN(Cc3ccccc3)CC2)c1O`
Solution: 389

---

- procedure_text: Solubility comparison of ZYS-1 and PAC-1 needle crystal (HPLC)
- Format: physicochemical
- condition_parameters: ethyl acetate, organic solvent or mixture, thermodynamic from solid, room temperature
assay_readout: solubility at 24 h (mg/mL)
Write the answer as a number in mg/mL, unit excluded.

Problem: Need solubility at 24 h, item C=CCc1cccc(/C=N/NC(=O)CN2CCN(Cc3ccccc3)CC2)c1O [PAC-1 needle crystal, reference compound]
Solution: 33.4

---

- procedure_text: in vivo
- condition_parameters: both sexes, ICR, mouse, in vivo, po, acute toxicity (LD50) dose
assay_readout: LD50 at 7 days (mg/kg)
Give the value in mg/kg but do not write mg/kg after it.

Problem: # input molecule: C=CCc1cccc(/C=N/NC(=O)CN2CCN(Cc3ccccc3)CC2)c1O [PAC-1 needle crystal, reference compound] ; wanted: its LD50 at 7 days
Solution: 552

---

- procedure_text: In vivo pharmacokinetic comparison in rats
- condition_parameters: male, Wistar, rat, plasma, 60 mg/kg, n = 6, read-out: MRT(0-tn)
assay_readout: MRT (h)
Number in h, nothing else.

Problem: Returns the measured MRT for the input molecule. Input: C=CCc1cccc(/C=N/NC(=O)CN2CCN(Cc3ccccc3)CC2)c1O [ZYS-1]
Solution: 167

---

- procedure_text: In vivo pharmacokinetic comparison in rats
- condition_parameters: male, Wistar, rat, plasma, 60 mg/kg, n = 6, read-out: Tmax
- Procedure: Twelve male Wistar rats were randomly divided into ZYS-1 group and PAC-1 group. These rats were fasted for 12 hours before administration, and fed water freely. After ZYS-1 and PAC-1 needle crystal were given at the dose of 60 mg/Kg, 0.5 mL orbital blood was collected at 0, 5, 20, 30, 45, 60, 120, 180, 240, 360, 480, 720 mins, centrifuged at 5000 r/min for 5 min. 200 μL plasma was taken. […] The filtrate was tested by HPLC, and the plasma concentration at each time point was calculated.
assay_readout: Tmax (h)
Return type: number; implicit unit h.

Problem: So what does the record say about Tmax for `C=CCc1cccc(/C=N/NC(=O)CN2CCN(Cc3ccccc3)CC2)c1O` ?
Solution: 65

---

- procedure_text: Solubility comparison of ZYS-1 and PAC-1 needle crystal (HPLC)
- Assay type: physicochemical
- condition_parameters: methanol, organic solvent or mixture, thermodynamic from solid, room temperature
assay_readout: solubility at 24 h

Problem: solubility at 24 h lookup needed for C=CCc1cccc(/C=N/NC(=O)CN2CCN(Cc3ccccc3)CC2)c1O [PAC-1 needle crystal, reference compound] , thanks.
Solution: 28.2 mg/mL

---

- procedure_text: Solubility comparison of ZYS-1 and PAC-1 needle crystal (HPLC)
- Type: physicochemical
- condition_parameters: propanol, organic solvent or mixture, thermodynamic from solid, room temperature
assay_readout: solubility at 24 h (mg/mL)
Numbers only; they are read as mg/mL.

Problem: I'd like to know its solubility at 24 h. The compound in question is C=CCc1cccc(/C=N/NC(=O)CN2CCN(Cc3ccccc3)CC2)c1O [PAC-1 needle crystal, reference compound]
Solution: 16
